Reference source: PubChem BioAssay AID719

Answer each item with its documented viability.
assay: antiproliferative effect on LL 47 fibroblasts – human, LL 47 cells, CellTiter-Glo luminescence, primary screen (AID 719); conditions: LL 47 human lung fibroblast viability, ATP luminescence; at 10 µM; stronger effect = lower value;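 also: compound exposure lasted 72 h before the ATP readout; 100% = median luminescence of untreated cell-only wells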
The whole screen tested about 85,000 compounds, of which about 940 (1.1%) were called active. What follows is part of a selection rich in actives, with near analogues and random picks from the rest.
State just the number; it will be interpreted in %.

Item Clc1cccc(N=C2NN=C(c3ccc4c(c3)OCCO4)CS2)c1 has what recorded viability?
101

What would you report for Cc1cc(=O)oc2cc(NC(=O)C3CC(=O)N(Cc4ccccc4)C3)ccc12 (stereo unspecified) ?
103

Again, but for O=C(c1cccc(C(=O)N2CCN(c3ccc(F)cc3)CC2)c1)N1CCN(c2ccc(F)cc2)CC1
97.2

Now try Cc1cccc(N2CCN(C(=O)c3cnn4c(C(F)F)cc(-c5ccccc5)nc34)CC2)c1C .
87.9

Next record, please: Cc1ccccc1N1CCN(CCCOc2ccc3c(C)cc(=O)oc3c2)CC1
94

Can you check Oc1c(CN2CCN(c3ccc(F)cc3)CC2)cc(Cl)c2cccnc12 next?
22.4
